test: MTT assay (cytotoxicity), LNCaP cells; format: cell-based; settings: human, LNCaP cells, 72 h, Table 2.3
Each item that follows carries a reported IC50 at 72 h.
Provide the reading as a plain figure in µM.

Check out these entries, answers already filled in.
[[record]]
compound = "O=C(N/C=C/c1cc(C(F)(F)F)ccc1C(F)(F)F)Nc1cnc2ccccc2c1 [Compound 524]"
quantitative_readout = 3.4

[[record]]
compound = "O=C(N/C=C/c1cc(C(F)(F)F)cc(C(F)(F)F)c1)Nc1cnc2ccccc2c1 [Compound 523]"
quantitative_readout = 8

[[record]]
compound = "O=C(N/C=C/c1cc(C(F)(F)F)ccc1C(F)(F)F)Nc1ccc2ncccc2c1 [Compound 517]"
quantitative_readout = 3.4


For COc1cccc(/C=C/NC(=O)Nc2ccc3c(c2)OCO3)c1 [Compound 431] , what is its reported IC50 at 72 h?
17.3

For O=C(N/C=C/c1cccc(C(F)(F)F)c1)Nc1ccc2[nH]ccc2c1 [Compound 520] , what is its reported IC50 at 72 h?
6.5

###

System: DU145 cells
Assay: MTT assay (cytotoxicity), DU145 cells
Assay type: cell-based
Settings: 72 h, Table 2.1
Experimental: MTT assays: LNCaP, 22Rv1, Du145, H1975, A549, MB231 and MCF-7 cells are maintained in RPMI 1640 supplemented with 10% FBS. Cells were seeded at a density of 6-7×10^3 cells per well in 96-well plates. After overnight incubation, cells in fresh RPMI 1640 supplemented with 10% FBS were exposed to DMSO vehicle control or test compounds at designated concentrations for 72 h. Viable cells were evaluated by MTT assays. Experiments were performed in triplicate and repeated at least twice.
Mark yes (1) only for IC50 values smaller than 3 µM; exact matches and larger values are no (0).

[[record]]
mol_smiles = "O=C(N/C=C/c1cc(C(F)(F)F)cc(C(F)(F)F)c1)Nc1ncccn1"
label = "yes (1)"


# ---- query molecule ----
# strict comparison: is reported IC50 < 3 µM? input = `O=C(N/C=C/c1cc(C(F)(F)F)cc(C(F)(F)F)c1)Nc1cnccn1`
yes (1)

###

experiment: MTT assay (cytotoxicity), 22Rv1 cells; assay type: cell-based; details: human, 22Rv1 cells, 72 h, Table 4.1
Each item that follows carries a reported IC50 at 72 h.
Provide the reading as a plain figure in µM.

Check out these entries, answers already filled in.
[[record]]
mol_smiles = "O=C(Nc1cc(C(F)(F)F)cc(C(F)(F)F)c1)Nc1ccc2[nH]ccc2c1"
quantitative_readout = 7.1

[[record]]
mol_smiles = "O=C(Nc1ccc(Br)nc1)Nc1cc(C(F)(F)F)cc(C(F)(F)F)c1"
quantitative_readout = 1.1


// switching to the query molecule
For `O=C(Nc1cc(C(F)(F)F)cc(C(F)(F)F)c1)Nc1ccncn1` , what is its reported IC50 at 72 h?
5.5

###

Each item that follows carries a reported IC50.
System: LNCaP cells
Experiment: MTT assay (cytotoxicity), LNCaP cells
Assay type: cell-based
Settings: 72 h, Table 2.1
Procedure: MTT assays: LNCaP, 22Rv1, Du145, H1975, A549, MB231 and MCF-7 cells are maintained in RPMI 1640 supplemented with 10% FBS. Cells were seeded at a density of 6-7×10^3 cells per well in 96-well plates. After overnight incubation, cells in fresh RPMI 1640 supplemented with 10% FBS were exposed to DMSO vehicle control or test compounds at designated concentrations for 72 h. Viable cells were evaluated by MTT assays. Experiments were performed in triplicate and repeated at least twice.
Provide the reading as a plain figure in µM.

[[record]]
compound = "O=C(N/C=C/c1cc(C(F)(F)F)cc(C(F)(F)F)c1)Nc1cnccc1Cl [Compound 533]"
quantitative_readout = 2


For O=C(N/C=C/c1cccc(C(F)(F)F)c1)Nc1cnccn1 [Compound 558] , what is its reported IC50?
0.06

###

target: T877A mutant of full-length AR (Homo sapiens, UniProt P10275, T878A); assay: AR T877A mutant PSA-luc reporter assay in PC3 cells; assay type: cell-based; details: absence of DHT, 24 h
Sequence (P10275 whole entry T878A): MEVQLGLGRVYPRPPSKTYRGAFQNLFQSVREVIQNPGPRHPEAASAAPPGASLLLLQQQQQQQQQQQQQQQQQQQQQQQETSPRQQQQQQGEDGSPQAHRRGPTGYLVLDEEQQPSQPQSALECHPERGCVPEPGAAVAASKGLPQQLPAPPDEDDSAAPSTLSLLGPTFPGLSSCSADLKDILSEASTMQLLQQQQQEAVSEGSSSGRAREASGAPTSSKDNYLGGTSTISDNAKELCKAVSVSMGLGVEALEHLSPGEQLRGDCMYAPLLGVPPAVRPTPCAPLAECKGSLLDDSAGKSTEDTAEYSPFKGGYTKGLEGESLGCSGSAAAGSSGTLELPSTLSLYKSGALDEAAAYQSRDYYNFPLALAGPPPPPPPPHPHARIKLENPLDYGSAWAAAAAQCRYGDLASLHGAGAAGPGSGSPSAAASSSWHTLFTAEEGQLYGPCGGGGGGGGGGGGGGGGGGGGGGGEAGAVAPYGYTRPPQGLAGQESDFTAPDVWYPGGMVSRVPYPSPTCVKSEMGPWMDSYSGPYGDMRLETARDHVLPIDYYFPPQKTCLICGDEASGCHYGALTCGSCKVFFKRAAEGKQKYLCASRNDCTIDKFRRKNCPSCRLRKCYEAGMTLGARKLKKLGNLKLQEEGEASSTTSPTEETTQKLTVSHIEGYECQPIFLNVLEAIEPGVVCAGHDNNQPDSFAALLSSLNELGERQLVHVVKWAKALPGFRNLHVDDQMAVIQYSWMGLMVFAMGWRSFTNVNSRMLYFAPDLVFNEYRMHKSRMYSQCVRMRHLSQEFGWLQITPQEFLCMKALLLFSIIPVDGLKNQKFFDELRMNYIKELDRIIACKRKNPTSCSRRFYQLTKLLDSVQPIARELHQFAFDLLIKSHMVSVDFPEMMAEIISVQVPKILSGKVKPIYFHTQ
Readout kind: agonism of AR T877A mutant (PSA-luc)

[[record]]
mol_smiles = "N#Cc1ccc(NC(=O)Nc2cccc(C(F)(F)F)c2)cc1Cl"
result = "non-agonist"

[[record]]
mol_smiles = "N#Cc1ccc(NC(=O)Nc2cccc(C(F)(F)F)c2)cc1C(F)(F)F"
result = "non-agonist"

[[record]]
mol_smiles = "O=C(Nc1cccc(C(F)(F)F)c1)Nc1ccc([N+](=O)[O-])c(C(F)(F)F)c1"
result = "non-agonist"


###

assay: MTT assay (cytotoxicity), LNCaP cells; assay type: cell-based; conditions: human, LNCaP cells, 72 h, Table 4.1
Readout kind: IC50 at 72 h (µM)
Provide the reading as a plain figure in µM.

[[record]]
compound = "O=C(Nc1cc(C(F)(F)F)cc(C(F)(F)F)c1)Nc1ccc2[nH]ccc2c1 [Compound 530]"
quantitative_readout = 6


For O=C(Nc1ccc(Br)nc1)Nc1cc(C(F)(F)F)cc(C(F)(F)F)c1 [Compound 566] , what is its reported IC50 at 72 h?
0.8

For O=C(Nc1cc(C(F)(F)F)cc(C(F)(F)F)c1)Nc1ccncn1 [Compound 578] , what is its reported IC50 at 72 h?
1.3

For O=C(Nc1cccc(C(F)(F)F)c1)Nc1ccncn1 [Compound 574] , what is its reported IC50 at 72 h?
13.8

###

assay: MTT assay (cytotoxicity), 22Rv1 cells; type: cell-based; conditions: human, 22Rv1 cells, 72 h, Table 2.4
Readout kind: IC50 at 72 h

Check out these entries, answers already filled in.
[[record]]
mol_smiles = "O=C(N/C=C/c1ccco1)Nc1ccc([N+](=O)[O-])c(C(F)(F)F)c1"
result = "5.6 µM"

[[record]]
mol_smiles = "O=C(N/C=C/c1cccc(C(F)(F)F)c1)NCc1ccc([N+](=O)[O-])cc1"
result = "7.5 µM"

[[record]]
mol_smiles = "O=C(N/C=C/c1cccs1)Nc1ccc([N+](=O)[O-])c(C(F)(F)F)c1"
result = "4.1 µM"

[[record]]
mol_smiles = "N#Cc1ccc(NC(=O)N/C=C/c2cccs2)cc1C(F)(F)F"
result = "3.7 µM"

[[record]]
mol_smiles = "O=C(N/C=C/c1ccc([N+](=O)[O-])c(C(F)(F)F)c1)NCc1cccc(C(F)(F)F)c1"
result = "3.4 µM"


For `CC(C)(C)OC(=O)n1cnc(/C=C/NC(=O)Nc2ccc([N+](=O)[O-])c(C(F)(F)F)c2)c1` , what is its reported IC50 at 72 h?
> 20 µM

For `O=C(N/C=C/c1ccc2c(c1)OCO2)Nc1ccc([N+](=O)[O-])c(C(F)(F)F)c1` , what is its reported IC50 at 72 h?
17.5 µM

For `O=C(NCCc1cccc(C(F)(F)F)c1)Nc1ccc([N+](=O)[O-])c(C(F)(F)F)c1` , what is its reported IC50 at 72 h?
4.5 µM

###

tested on: H1975 cells; experiment: MTT assay (cytotoxicity), H1975 cells; format: cell-based; conditions: 72 h treatment, Table 6.1
Each item that follows carries a reported IC50.
Provide the reading as a plain figure in µM.

[[record]]
compound = "O=C(N/C=C/c1cccc(C(F)(F)F)c1)Nc1cnccn1 [Compound 558]"
unit_tag = "µM"
quantitative_readout = 2.4


For N#Cc1ccc(NC(=O)N/C=C/c2cccc(C(F)(F)F)c2)cc1C(F)(F)F [Compound 410] , what is its reported IC50?
2.5

###

experiment: MTT assay (cytotoxicity), 22Rv1 cells; type: cell-based; conditions: human, 22Rv1 cells, 72 h, Table 2.4
Readout kind: IC50 at 72 h
Please provide the amount together with its unit, number first.

Check out these entries, answers already filled in.
[[record]]
mol_smiles = "O=C(N/C=C/c1cccs1)Nc1cccc(C(F)(F)F)c1"
result = "12.3 µM"

[[record]]
mol_smiles = "N#Cc1ccc(NC(=O)N/C=C/c2cccs2)cc1"
result = "16.7 µM"


// switching to the query compound
For `CC(C)(C)OC(=O)n1cc(/C=C/NC(=O)Nc2ccc([N+](=O)[O-])c(C(F)(F)F)c2)c2ccccc21` , what is its reported IC50 at 72 h?
4 µM

###

Each item that follows carries a reported IC50 at 72 h.
experiment: MTT assay (cytotoxicity), 22Rv1 cells; type: cell-based; details: human, 22Rv1 cells, 72 h treatment, Table 6.1
Provide the reading as a plain figure in µM.

Check out these entries, answers already filled in.
[[record]]
mol_smiles = "O=C(Nc1cccc(F)c1)Nc1cc(F)ccc1NC(=O)c1ccc(F)cc1F"
readout_kind = "IC50 at 72 h"
quantitative_readout = 7.7

[[record]]
mol_smiles = "O=C(Nc1cccc(C(F)(F)F)c1)Nc1ccc(NC(=O)c2cc(C(F)(F)F)ccc2F)c(C(F)(F)F)c1"
readout_kind = "IC50 at 72 h"
quantitative_readout = 5


// switching to the query compound
For `O=C(Nc1cccc(C(F)(F)F)c1)Nc1ccc(NC(=O)c2ccccc2F)c(C(F)(F)F)c1` , what is its reported IC50 at 72 h?
2.2
